run_description: T. cruzi intracellular proliferation inhibitors, primary screen, cell-based, beta-gal Tulahuen parasites, NIH3T3 host, luminescence (AID 624255)
measurement_parameters: T. cruzi beta-gal in NIH3T3, GalScreen luminescence, 90 h; at 8.34 µM
Among all 77,000 compounds or so, about 4,600 (6%) were called active. About 1% were inconclusive and are not listed.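 How the source made its calls: active means mean inhibition above about 93%, with at least 55% of replicates each passing it (limit read from the data, passing the limit was not always enough); inconclusive means only one of those two conditions holds; inactive means neither condition holds.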 The full list was thinned out, with actives kept by preference.
Possible outcomes: 1.0 for active, 0.0 for inactive

>>> qualitative_label("COC(=O)[C@H]1[C@H](CO)[C@H]2Cn3c(ccc(-c4ccccc4F)c3=O)[C@@H]1N2C(=O)C1CCC1")
0.0
>>> qualitative_label("O=C(Cc1ccccn1)N1CCCCN2[C@@H](CO)[C@@H](c3ccc(C#Cc4ccccc4)cc3)[C@@H]2C1")
1.0
>>> qualitative_label("COc1ccc(-c2ccc([C@H]3[C@H](CO)N4CCCCN(C(=O)Cc5ccncc5)C[C@@H]34)cc2)cc1")
1.0
>>> qualitative_label("O=C(Cc1ccncc1)N1CCCCN2[C@H](CO)[C@@H](c3ccc(C#CC4(O)CCCC4)cc3)[C@H]2C1")
0.0
>>> qualitative_label("OC[C@@H]1[C@H]2c3ccccc3NC[C@H]2N1Cc1cccnc1")
0.0
>>> qualitative_label("COc1cccc(-c2ccc3n(c2=O)C[C@@H]2[C@@H](CO)[C@H](C(=O)O)[C@H]3N2C(=O)c2cnccn2)c1")
0.0
>>> qualitative_label("O=C(O)[C@H]1[C@H](CO)[C@H]2Cn3c(cccc3=O)[C@@H]1N2C(=O)c1ccccc1")
0.0
>>> qualitative_label("O=C(Cc1ccncc1)N1CCCCN2[C@@H](CO)[C@H](c3ccc(C#CC4(O)CCCC4)cc3)[C@@H]2C1")
0.0

====

# inhibition listing for each entry below
run_description: T. cruzi intracellular proliferation inhibitors, primary screen, cell-based, beta-gal Tulahuen parasites, NIH3T3 host, luminescence (AID 624255)
measurement_parameters: T. cruzi beta-gal in NIH3T3, GalScreen luminescence, 90 h; at 8.34 µM; active compounds read high
Screen size: about 77,000 compounds; about 4,600 (6%) were called active. Not shown: some 1% with an inconclusive outcome. This excerpt belongs to a sample that is enriched for actives.
quantity: inhibition (%)

>>> test_result("O=C(Cc1ccccc1)N1CCCCN2[C@H](C1)[C@H](c1ccc(C#CC3(O)CCCC3)cc1)[C@@H]2CO")
84.7
>>> test_result("O=C(O)[C@H]1[C@H](CO)[C@H]2Cn3c(ccc(-c4ccccc4F)c3=O)[C@@H]1N2C(=O)c1cccnc1")
30
>>> test_result("N#Cc1cccc(-c2ccc([C@H]3[C@@H](CO)N4CCCCN(C(=O)Cc5cccnc5)C[C@@H]34)cc2)c1")
61.2
>>> test_result("COC(=O)[C@@H]1[C@@H](CO)[C@@H]2Cn3c(ccc(C4=CCCCC4)c3=O)[C@H]1N2CC1CC1")
48.5
>>> test_result("COc1cccc(-c2ccc([C@H]3[C@H]4CN(C(=O)Cc5ccncc5)CCCCN4[C@H]3CO)cc2)c1")
80.9
>>> test_result("O=C(Cc1cccnc1)N1CCCCN2[C@@H](CO)[C@H](c3ccc(C#CC4CCCC4)cc3)[C@@H]2C1")
110
>>> test_result("COC(=O)[C@@H]1[C@@H](CO)[C@@H]2Cn3c(ccc(-c4ccc(F)cc4)c3=O)[C@H]1N2C(C)=O")
-2.43
>>> test_result("COC(=O)[C@H]1[C@H](CO)[C@H]2Cn3c(ccc(-c4cccc(F)c4)c3=O)[C@@H]1N2Cc1ccccc1")
8.82
